Molecular target: PTGFR (Homo sapiens, UniProt P43088)
Construct: purchased Promega (in-house HiBiT-GPCR construct library, NanoBRET)
Sequence (P43088 whole entry): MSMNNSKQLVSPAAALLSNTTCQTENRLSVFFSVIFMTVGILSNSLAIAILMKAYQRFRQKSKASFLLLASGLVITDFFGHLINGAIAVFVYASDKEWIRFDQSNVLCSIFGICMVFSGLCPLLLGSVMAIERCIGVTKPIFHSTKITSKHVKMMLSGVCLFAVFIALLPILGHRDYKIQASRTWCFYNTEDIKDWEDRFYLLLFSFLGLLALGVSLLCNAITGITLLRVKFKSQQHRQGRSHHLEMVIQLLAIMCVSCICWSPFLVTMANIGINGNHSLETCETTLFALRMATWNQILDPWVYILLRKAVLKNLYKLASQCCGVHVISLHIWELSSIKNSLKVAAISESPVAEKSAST
Assay: NanoBRET screen HiBiT-PTGFR in HEK293
Assay type: binding
Settings: PTGFR; tracer 1μM
In this section we review reported NanoBRET Fold Response values for a set of compounds.

>  <Compound>
CC(C)N(CC[C@H](c1ccccc1)c1cc(CCNC(=O)c2ccc(CNC(=O)CCc3ccc4n3[B-](F)(F)[N+]3=C(c5ccc[nH]5)C=CC3=C4)cc2)ccc1O)C(C)C [Tolterodine-BZ-NB590]

>  <NanoBRET Fold Response>
1.01

$$$$
>  <Compound>
O=C(CCc1ccc2n1[B-](F)(F)[N+]1=C(c3ccc[nH]3)C=CC1=C2)NCCOCCOCCNC(=O)OCCOCCN1CCN(C2=Nc3ccccc3Sc3ccccc32)CC1 [Quetiapine-a-2-NB590]

>  <NanoBRET Fold Response>
1.06

$$$$
>  <Compound>
COc1ccccc1N1CCN(CCCCN2C(=O)c3ccc(CNC(=O)CCOCCOCCOCCOCCNC(=O)CCc4ccc5n4[B-](F)(F)[N+]4=C(c6ccc[nH]6)C=CC4=C5)cc3C2=O)CC1 [NAN-190-2-NB590]

>  <NanoBRET Fold Response>
1.00

$$$$
>  <Compound>
O=C(CCOCCOCCOCCOCCNC(=O)CCc1ccc2n1[B-](F)(F)[N+]1=C(c3ccc[nH]3)C=CC1=C2)NCCCN1CCN(C2=Nc3ccccc3Oc3ccc(Cl)cc32)CC1 [Loxapine-a-2-NB590]

>  <NanoBRET Fold Response>
1.02

$$$$
>  <Compound>
CCCn1c(=O)c2[nH]c(-c3ccc(OCC(=O)NCCNC(=O)CCOCCNC(=O)c4ccc(CNC(=O)CCc5ccc6n5[B-](F)(F)[N+]5=C(c7ccc[nH]7)C=CC5=C6)cc4)cc3)nc2n(CCC)c1=O [XAC-3-NB590]

>  <NanoBRET Fold Response>
0.98

$$$$
>  <Compound>
CC(C)N(CC[C@H](c1ccccc1)c1cc(CCNC(=O)CCOCCOCCOCCOCCNC(=O)CCc2ccc3n2[B-](F)(F)[N+]2=C(c4ccc[nH]4)C=CC2=C3)ccc1O)C(C)C [Tolterodine-2-NB590]

>  <NanoBRET Fold Response>
0.94

$$$$
>  <Compound>
Cc1nc2n(c(=O)c1CCN1CCC(c3noc4cc(F)ccc34)CC1)CCCC2OC(=O)NCCOCCOCCOCCOCCNC(=O)CCc1ccc2n1[B-](F)(F)[N+]1=C(c3ccc[nH]3)C=CC1=C2 (centres unmarked) [Risperidone-2-NB590]

>  <NanoBRET Fold Response>
1.02

$$$$
>  <Compound>
COc1ccccc1N1CCN(CCCCN2C(=O)c3ccc(CNC(=O)CCOCCNC(=O)c4ccc(CNC(=O)CCc5ccc6n5[B-](F)(F)[N+]5=C(c7ccc[nH]7)C=CC5=C6)cc4)cc3C2=O)CC1 [NAN-190-3-NB590]

>  <NanoBRET Fold Response>
0.90

$$$$
>  <Compound>
N#CN=C(NCCCOc1cccc(CN2CCCCC2)c1)NCCNC(=O)CCOCCOCCOCCOCCNC(=O)CCc1ccc2n1[B-](F)(F)[N+]1=C(c3ccc[nH]3)C=CC1=C2 [Aminopotentidine-2-NB590]

>  <NanoBRET Fold Response>
0.93

$$$$
>  <Compound>
Cc1cc2c(s1)Nc1ccccc1N=C2N1CCN(CCCNC(=O)CCOCCOCCOCCOCCNC(=O)CCc2ccc3n2[B-](F)(F)[N+]2=C(c4ccc[nH]4)C=CC2=C3)CC1 [Olanzapine-a-2-NB590]

>  <NanoBRET Fold Response>
1.07

$$$$
>  <Compound>
O=C(CCc1ccc2n1[B-](F)(F)[N+]1=C(c3ccc[nH]3)C=CC1=C2)NCc1ccc(C(=O)NCCOCCC(=O)N[C@@H]2CC[C@@]3(O)[C@H]4Cc5ccc(O)c6c5[C@@]3(CCN4CC3CC3)[C@H]2O6)cc1 [Naltrexone-3-NB590]

>  <NanoBRET Fold Response>
0.91

$$$$
